Test: Cytotoxicity counterscreen for inhibitors of SARS-CoV-2 cell entry (AID 1645845); also: nearly all actives have a fitted effect of over 50% in size
Details: cell viability (SARS-CoV-2 entry assay cells); series mostly up to 57.1 µM
Method: Assay Provider: Wei Zheng, Ph.D. National Center for Advancing Translational Sciences, National Institute of Health, Rockville, MD. SARS-CoV-2 spike protein, within the viral envelope, mediates viral attachment and infection of host cells. The SARS-CoV-2 spike protein specifically binds to the host receptor ACE2 (Angiotensin-converting enzyme 2). […] 7. […] Dispense 4 uL/well of ATPLite 1step luminescence assay reagent (PerkinElmer #6016739). […] 9. […] Read luminescence signal (Viewlux plate reader, PerkinElmer). […]
Records with an inconclusive call do not appear. Calls of active or inactive are those of the source. Calls follow the shape of the full dose curve.
Would you mind answering with one of these outcomes? active, inactive

Example cases with answers are listed next.
{"columns": ["COMPOUND", "LABEL_CLASS"],
 "data": [
  ["O=P(O)(O)CP(=O)(O)O", "inactive"],
  ["CCN(CC)CCOC(=O)c1cccnc1", "inactive"],
  ["CN[C@@H]1[C@@H](O[C@H]2O[C@H](CO)[C@@H](N)[C@H](O)[C@H]2O)O[C@H]2C[C@@H](N)[C@H](O[C@H]3[C@H](O)[C@@H](O)[C@H](N)C[C@@H]3N)O[C@@H]2[C@@H]1O", "inactive"],
  ["NC(=O)C1CCCN1C(=O)C(Cc1cnc[nH]1)NC(=O)C1CCC(=O)N1 (stereo unspecified)", "inactive"],
  ["CCN(CC)CCOc1ccc2nc(N(C)C)sc2c1", "inactive"]
]}

What outcome does the record of this test show for `CC(C)[C@H]1CC[C@H](C)C[C@H]1O` ? inactive

Query: recorded result category for `CC(=O)OC[C@H]1O[C@@H]([S-])[C@H](OC(C)=O)[C@@H](OC(C)=O)[C@@H]1OC(C)=O.CC[PH+](CC)CC.[Au]` in this test active
